Measured values drawn from the RNAGym collection of RNA variant scans (doi:10.7554/elife.80360) for this set.

B1: CPEB3 Ribozyme (parent)
chain: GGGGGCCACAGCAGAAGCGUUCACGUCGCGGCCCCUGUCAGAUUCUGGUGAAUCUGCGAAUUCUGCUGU

variants of: B1; experiment: self-cleavage, relative activity (ratio to wild type); higher = more cleavage; co-transcriptional
Please enter true (1) where self-cleavage is greater than or equal to 0.3, and false (0) where it is lower.

# input Can C9A G28A be said to have self-cleavage at or above 0.3?
# output false (0)

# input Given the entry C22U C29A , answer whether its self-cleavage meets or surpasses 0.3.
# output false (0)

# input Hi, just wondering whether G48C U62C shows self-cleavage of 0.3 or higher.
# output true (1)

# input Kindly determine if self-cleavage recorded for U49C U64G is above or exactly 0.3.
# output true (1)

# input Quick check: does G14U G41U have self-cleavage greater than or equal to 0.3?
# output false (0)

# input Decide: is the reported value of self-cleavage for G37U G65C equal to or greater than 0.3?
# output false (0)

# input State whether the measured self-cleavage reaches 0.3, counting equality as reaching it, for A8C U21G
# output true (1)

# input Does C7A C57G have a reported self-cleavage of at least 0.3?
# output false (0)

# input Would you say C57G G68U shows self-cleavage at minimum 0.3?
# output true (1)

# input Tell me whether self-cleavage is at least 0.3 here: G25C G58A
# output false (0)

# input Say whether C35G C39G shows self-cleavage of 0.3 or more.
# output true (1)
